Each recorded value in this set is attributed to patent US8592422B2.

Molecular target: human mGluR5a receptor (Homo sapiens, UniProt P41594)
Construct: cDNA subcloned into pcDNA3.1(-)
Sequence (P41594 21-1180 isoform P41594-2 limits assumed): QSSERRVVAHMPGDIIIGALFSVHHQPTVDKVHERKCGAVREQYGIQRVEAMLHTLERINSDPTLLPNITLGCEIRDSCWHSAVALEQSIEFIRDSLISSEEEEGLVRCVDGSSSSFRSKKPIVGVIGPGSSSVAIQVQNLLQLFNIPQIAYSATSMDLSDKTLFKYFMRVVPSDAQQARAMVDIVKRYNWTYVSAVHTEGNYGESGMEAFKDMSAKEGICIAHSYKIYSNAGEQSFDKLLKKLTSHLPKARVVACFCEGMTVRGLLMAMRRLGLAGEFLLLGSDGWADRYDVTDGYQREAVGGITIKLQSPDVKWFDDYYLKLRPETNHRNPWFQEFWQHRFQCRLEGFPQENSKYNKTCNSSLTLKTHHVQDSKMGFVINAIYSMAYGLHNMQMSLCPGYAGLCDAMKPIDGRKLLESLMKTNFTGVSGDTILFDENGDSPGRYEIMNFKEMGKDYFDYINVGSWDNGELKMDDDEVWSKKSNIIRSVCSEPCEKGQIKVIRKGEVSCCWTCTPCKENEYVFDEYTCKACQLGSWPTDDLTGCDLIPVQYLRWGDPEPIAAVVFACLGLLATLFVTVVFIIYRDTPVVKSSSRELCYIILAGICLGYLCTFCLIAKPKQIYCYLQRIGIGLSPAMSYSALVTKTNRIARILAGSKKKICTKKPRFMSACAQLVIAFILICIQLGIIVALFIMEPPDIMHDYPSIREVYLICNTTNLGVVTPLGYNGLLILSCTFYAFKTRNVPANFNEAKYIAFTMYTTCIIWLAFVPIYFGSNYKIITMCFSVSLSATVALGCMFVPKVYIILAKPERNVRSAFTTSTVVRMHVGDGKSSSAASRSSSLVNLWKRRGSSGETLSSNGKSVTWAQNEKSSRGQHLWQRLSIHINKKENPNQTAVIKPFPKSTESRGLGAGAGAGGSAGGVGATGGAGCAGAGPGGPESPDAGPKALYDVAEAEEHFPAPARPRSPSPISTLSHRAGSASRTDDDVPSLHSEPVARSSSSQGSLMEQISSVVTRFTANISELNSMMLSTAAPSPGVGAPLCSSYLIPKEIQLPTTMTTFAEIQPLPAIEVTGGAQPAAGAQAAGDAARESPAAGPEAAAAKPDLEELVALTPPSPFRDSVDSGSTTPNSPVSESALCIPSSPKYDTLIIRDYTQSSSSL
Assay: Cell-based functional Ca2+ mobilization assay (FDSS), potentiation of glutamate EC20 response
Details: HEK cells transfected with human mGluR5 (H10H or H12H); in presence of EC20 glutamate; read-out: EC50
pEC50: −log10 of the molar value.
endpoint: pEC50

O=C1c2cc(COc3ccccc3)nn2CCN1c1cnccn1	6.09
COc1nc(N2CCn3nc(COc4ccccc4)cc3C2=O)ncc1C	7.01
O=C1c2cc(COc3ccccc3)nn2CCN1c1ccc2nonc2c1	7.14
O=C1c2cc(COc3cccnc3)nn2CCN1c1ccc(F)cc1	5.51

(P) COc1ncccc1N1CCn2nc(COc3ccc(F)cc3)cc2C1=O
(Q) CC1CN(c2ccc(F)cc2)C(=O)c2cc(COc3cccc(F)c3)nn21 (single isomer, unassigned)
Query block: # compare pEC50 for P vs Q ; return the one with the smaller value # answer = label of selected item
Result block: P

(1) COc1ccc(N2CCn3nc(COc4ccccc4)cc3C2=O)nc1OC
(2) O=C1c2cc(COc3cncc(F)c3)nn2CCN1c1ccc(F)cc1
Query block: Param pair: 1 , 2 . Output: the one whose pEC50 is numerically greater. # answer = label of selected item
Result block: 1
(1: 7.02, 2: 5.88)

---

Target: human mGluR5a receptor (Homo sapiens)
Construct: cDNA subcloned into pcDNA3.1(-)
Assay: Cell-based functional Ca2+ mobilization assay (FDSS), potentiation of glutamate EC20 response
Details: maximum % effect in concentration-response curve, as percent of response to maximally effective glutamate
endpoint: Emax (%)

Study these solved cases before continuing.
CN(C)c1ccc(N2CCn3nc(COc4ccccc4)cc3C2=O)nn1	53
Cc1cc(OCc2cc3n(n2)CCN(c2ccc(F)cc2)C3=O)ncn1	37
Cc1ccc(N2CCn3nc(COc4ccccc4)cc3C2=O)nc1N(C)C	66
Cc1cc(N2CCn3nc(COc4ccccn4)cc3C2=O)ccc1F	66

(1) Cc1c(COc2ccccc2)nn2c1C(=O)N(c1ccc(F)cc1)CC2
(2) COc1cncc(N2CCn3nc(COc4ccc(F)cc4)cc3C2=O)n1
Query block: # compare Emax (%) for 1 vs 2 ; return the one with the smaller value # answer = label of selected item
Result block: 1

(a) Cc1ccc(F)cc1N1CCn2nc(COc3ccccc3)cc2C1=O
(b) O=C1c2cc(COc3ccccc3)nn2CC(CO)N1c1ccc(F)cc1 (stereo not drawn) [Example 268]
Query block: # compare Emax (%) for a vs b ; return the one with the smaller value # answer = label of selected item
Result block: b

---

Target: human mGluR5a receptor (Homo sapiens)
Construct: cDNA subcloned into pcDNA3.1(-)
Test: Cell-based functional Ca2+ mobilization assay (FDSS), potentiation of glutamate EC20 response
Settings: HEK cells transfected with human mGluR5 (H10H or H12H); in presence of EC20 glutamate; read-out: EC50
Procedure: Human embryonic kidney (HEK) cells transfected with rat mGluR5 were plated in clear bottom assay plates for assay in a Functional Drug Screening System (FDSS). […] After establishment of a fluorescence baseline for twelve seconds, the compounds of the present invention were added to the cells, and the response in cells was measured. […] Five minutes later, an mGluR5 agonist (e.g., glutamate, 3,5-dihydroxyphenylglycine, or quisqualate) was added to the cells, and the response of the cells was measured. […]
pEC50: −log10 of the molar value.
endpoint: pEC50

Study these solved cases before continuing.
N#Cc1cccc(OCc2cc3n(n2)CCN(c2ccc(F)cn2)C3=O)c1	6.28
Cc1ccnc(OCc2cc3n(n2)CCN(c2ccc(F)cc2)C3=O)c1	6.45
CNc1nc(N2CCn3nc(COc4ccccc4)cc3C2=O)ncc1F	6.65
Cc1ccc(F)c(N2CCn3nc(COc4ccccc4)cc3C2=O)n1	6.75
Cc1nc(N2CCn3nc(COc4ccccn4)cc3C2=O)ccc1F	6.41

(1) CC(C)CN1CCn2nc(COc3ccccc3)cc2C1=O
(2) COc1nc(N2CCn3nc(COc4ccc(F)cc4)cc3C2=O)ncc1C
(3) COc1cnc(N2CCn3nc(COc4ccccc4)cc3C2=O)nc1
(4) O=C1c2nc(COc3ccccc3)nn2CCN1c1ccc(F)cc1
(5) O=c1c2nc(COc3ccccc3)nn2ccn1-c1ccc(F)cc1
Query block: // sort entries: pEC50, high to low Thanks in advance for listing the labels in the requested order.
Result block: 1, 2, 3, 5, 4

(A) COc1nc(N2CCn3nc(COc4ccc(F)cc4)cc3C2=O)ncc1F
(B) O=C1c2cc(COc3ccccc3)nn2C(CF)CN1c1ccc(F)cc1 (racemic)
(C) Cn1ccn2nc(COc3ccccc3)cc2c1=O
Query block: // sort entries: pEC50, high to low Thanks in advance for listing the labels in the requested order.
Result block: B, A, C

(A) Cc1cc(F)cc(N2CCn3nc(COc4ccccc4)cc3C2=O)c1
(B) COc1ccccc1N1CCn2nc(COc3ccc(F)cc3)cc2C1=O
Query block: Param pair: A , B . Output: the one whose pEC50 is numerically greater. # answer = label of selected item
Result block: A

(I) COc1ccc(N2CCn3nc(COc4ccccc4)cc3C2=O)cc1F
(II) COc1cccc(N2CCn3nc(COc4ccc(F)cc4)cc3C2=O)c1
Query block: # compare pEC50 for I vs II ; return the one with the smaller value # answer = label of selected item
Result block: II
